Test: in vitro
Details: human, Permeability fresh
Recorded metric: Papp (×10⁻⁶ cm/s)

>>> print(df.to_string())
                              smiles_repr  reported_value
0  OC[C@@H](O)[C@@H](O)[C@H](O)[C@H](O)CO            0.56

###

Experiment: Human BBB model permeability, clone not specified or both clones
Conditions: human
Recorded metric: Papp (×10⁻⁶ cm/s)

>>> df
                                   compound  recorded_metric  reported_value
0  CCC(=O)CCCCCC(NC(=O)C1CN(C)C1)c1ncc(-c2cc3ccccc3nc2OC)o1 (centres unmarked) [cpK]             Papp            15.4

###

# Papp values compiled below
Experiment: Permeability assay across hiPSC-derived BMECs clone 2 on Transwell, co-culture with human astrocytes

Compound	Papp
N[C@@H](Cc1ccccc1)C(=O)O [phenylalanine]	28.6 ×10⁻⁶ cm/s
CN(Cc1cnc2nc(N)nc(N)c2n1)c1ccc(C(=O)N[C@@H](CCC(=O)O)C(=O)O)cc1 [methotrexate]	0.77 ×10⁻⁶ cm/s
CC[C@]1(O)C[C@@H]2CN(CCc3c([nH]c4ccccc34)[C@@](C(=O)OC)(c3cc4c(cc3OC)N(C)[C@H]3[C@@](O)(C(=O)OC)[C@H](OC(C)=O)[C@]5(CC)C=CCN6CC[C@]43[C@@H]65)C2)C1 [vinblastine]	3.5 ×10⁻⁶ cm/s

###

# Papp B→A values compiled below
Test: in vitro
Conditions: human
Recorded metric: Papp B→A (×10⁻⁶ cm/s)

Smiles repr	Reported value
CC(=O)O[C@H]1C(=O)[C@@]2(C)[C@H]([C@H](OC(=O)c3ccccc3)[C@]3(O)C[C@H](OC(=O)[C@H](O)[C@@H](NC(=O)c4ccccc4)c4ccccc4)C(C)=C1C3(C)C)[C@]1(OC(C)=O)CO[C@@H]1C[C@@H]2O	15.4
C[C@H]1O[C@@H](O[C@H]2[C@@H](O)C[C@H](O[C@H]3[C@@H](O)C[C@H](O[C@H]4CC[C@@]5(C)[C@H](CC[C@@H]6[C@@H]5C[C@@H](O)[C@]5(C)[C@@H](C7=CC(=O)OC7)CC[C@]65O)C4)O[C@@H]3C)O[C@@H]2C)C[C@H](O)[C@@H]1O	7.3
CC(C)C[C@H](N)C(=O)O	6.4

###

Assay: Permeability assay across hiPSC-derived BMECs clone 2 on Transwell, co-culture with human astrocytes
# Papp values compiled below

Compound	Papp (×10⁻⁶ cm/s)
COc1cccc2c1C(=O)c1c(O)c3c(c(O)c1C2=O)C[C@@](O)(C(C)=O)C[C@@H]3O[C@H]1C[C@H](N)[C@H](O)[C@H](C)O1 [daunomycin]	6.5
OC[C@H]1OC(O)[C@H](O)[C@@H](O)[C@@H]1O (some centres unmarked) [glucose]	25.2
CC(C)C[C@H](N)C(=O)O [leucine]	19.9
OC[C@@H](O)[C@@H](O)[C@H](O)[C@H](O)CO [mannitol]	0.8
Cn1c(=O)c2c(ncn2C)n(C)c1=O [caffeine]	26.5
CC(C)NCC(O)COc1cccc2ccccc12 (centres unmarked) [propranolol]	22
CC(=O)O[C@H]1C(=O)[C@@]2(C)[C@H]([C@H](OC(=O)c3ccccc3)[C@]3(O)C[C@H](OC(=O)[C@H](O)[C@@H](NC(=O)c4ccccc4)c4ccccc4)C(C)=C1C3(C)C)[C@]1(OC(C)=O)CO[C@@H]1C[C@@H]2O [taxol]	4.9
O=C1NC(=O)C(c2ccccc2)(c2ccccc2)N1 [phenytoin]	18.6

Value source: paper PMC7226989
